Please go through the items and note down their ΔG.
- SYSTEM UNDER TEST: T1, γHV68 M11 residues 1-136 (murine γHV68), P89884
- T1 chain: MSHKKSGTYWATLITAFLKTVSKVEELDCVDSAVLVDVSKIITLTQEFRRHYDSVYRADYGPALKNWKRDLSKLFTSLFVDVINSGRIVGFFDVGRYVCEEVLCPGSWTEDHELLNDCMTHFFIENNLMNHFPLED
- MEASUREMENT DESCRIPTION: ITC, 25 °C
One number for each entry, in kcal/mol.

Solved cases (2 shown):
1) GSGTMENLSRRLKVTGDLADIMSGQT (modifications not checked) [Beclin 1 BH3D-derived peptide F123A]: -7.22
2) GSGTMENASRRLKVTGDLFDIMSGQT (modifications not checked) [Beclin 1 BH3D-derived peptide L112A]: -7.32

For the next question, use this binder.
Fill in the blank: the reported ΔG of GSGTMENLSRRLKVTEALFDIMSGQT (modifications not checked) [Beclin 1 BH3D-derived G120E+D121A double mutant peptide] is ____.
-7.08
